Each record here notes measured Inhibition rate on human cancer cells.
# System: lung cancer cell line H460
# measurementDescription: In vitro cell inhibition assay (crystal violet), lung cancer H460
# Assay type: cell-based, human
# conditionSet: H460, 1.0 μM

{"molecule": "CCc1cc(=O)oc2cc(OCc3ccccc3C(=COC)C(=O)OC)ccc12 [28-33]", "unitSpec": "%", "Inhibition rate on human cancer cells": 90}
{"molecule": "CCCCCCc1c(C)c2ccc(OCc3ccccc3C(=COC)C(=O)OC)cc2oc1=O [28-75]", "unitSpec": "%", "Inhibition rate on human cancer cells": 70}
{"molecule": "COC=C(C(=O)OC)c1ccccc1COc1ccc2c(-c3ccccc3)cc(=O)oc2c1 [28-52]", "unitSpec": "%", "Inhibition rate on human cancer cells": 100}
{"molecule": "N.N.[Cl][Pt][Cl] [Cisplatin, reference compound]", "unitSpec": "%", "Inhibition rate on human cancer cells": 5}
{"molecule": "CCCc1c(C)c2ccc(OCc3ccccc3C(=COC)C(=O)OC)cc2oc1=O [Compound 28-27]", "unitSpec": "%", "Inhibition rate on human cancer cells": 80}
{"molecule": "CCCc1cc(=O)oc2cc(OCc3ccccc3C(=COC)C(=O)OC)ccc12 [28-34]", "unitSpec": "%", "Inhibition rate on human cancer cells": 93}
{"molecule": "CCc1c(C)c2ccc(OCc3ccccc3C(=COC)C(=O)OC)cc2oc1=O [Compound 28-18]", "unitSpec": "%", "Inhibition rate on human cancer cells": 95}
{"molecule": "COC=C(C(=O)OC)c1ccccc1COc1ccc2c3c(c(=O)oc2c1)CCCC3 [Compound 28-128]", "unitSpec": "%", "Inhibition rate on human cancer cells": 100}
{"molecule": "COC=C(C(=O)OC)c1ccccc1COc1ccc2c3c(c(=O)oc2c1C)CCCC3 [Compound 28-129]", "unitSpec": "%", "Inhibition rate on human cancer cells": 95}

====

Each record here notes measured Inhibition rate on human cancer cells.
# Test system: colon cancer HCT116
# measurementDescription: In vitro cell inhibition assay, colon cancer HCT116
# Format: cell-based, human
# conditionSet: HCT 116, 0.5 μM

{"molecule": "CCCCc1c(C)c2ccc(OCc3ccccc3/C(=C\\OC)C(=O)OC)cc2oc1=O [Compound 28-72, coumoxystrobin]", "measurementTarget": "colon cancer HCT116", "unitSpec": "%", "Inhibition rate on human cancer cells": 95}
{"molecule": "N.N.[Cl][Pt][Cl] [Cisplatin, reference compound]", "measurementTarget": "colon cancer HCT116", "unitSpec": "%", "Inhibition rate on human cancer cells": 0}
{"molecule": "COC=C(C(=O)OC)c1ccccc1COc1ccc2c3c(c(=O)oc2c1)CCCC3 [Compound 28-128]", "measurementTarget": "colon cancer HCT116", "unitSpec": "%", "Inhibition rate on human cancer cells": 100}
{"molecule": "COC=C(C(=O)OC)c1ccccc1COc1ccc2c3c(c(=O)oc2c1C)CCCC3 [Compound 28-129]", "measurementTarget": "colon cancer HCT116", "unitSpec": "%", "Inhibition rate on human cancer cells": 95}

====

Each record here notes measured Inhibition rate on human cancer cells.
# Test system: colon cancer HCT8
# measurementDescription: In vitro cell inhibition assay, colon cancer HCT8
# Type: cell-based, human
# conditionSet: HCT 8, 0.5 μM

{"compound": "N.N.[Cl][Pt][Cl] [Cisplatin, reference compound]", "Inhibition rate on human cancer cells (%)": 10}
{"compound": "COC=C(C(=O)OC)c1ccccc1COc1ccc2c3c(c(=O)oc2c1C)CCCC3", "Inhibition rate on human cancer cells (%)": 95}
{"compound": "COC=C(C(=O)OC)c1ccccc1COc1ccc2c3c(c(=O)oc2c1)CCCC3", "Inhibition rate on human cancer cells (%)": 100}
{"compound": "CCCCc1c(C)c2ccc(OCc3ccccc3/C(=C\\OC)C(=O)OC)cc2oc1=O", "Inhibition rate on human cancer cells (%)": 95}

====

Each record here notes measured Inhibition rate on human cancer cells.
# Test system: colon cancer HCT116
# measurementDescription: In vitro cell inhibition assay, colon cancer HCT116
# Format: cell-based, human
# conditionSet: HCT 116, 2.5 μM
attributeMeasured: Inhibition rate on human cancer cells (%)

{"molecule": "COC=C(C(=O)OC)c1ccccc1COc1ccc2c3c(c(=O)oc2c1C)CCCC3", "measValue": 100}
{"molecule": "N.N.[Cl][Pt][Cl] [Cisplatin, reference compound]", "measValue": 20}
{"molecule": "COC=C(C(=O)OC)c1ccccc1COc1ccc2c3c(c(=O)oc2c1)CCCC3", "measValue": 100}
{"molecule": "CCCCc1c(C)c2ccc(OCc3ccccc3/C(=C\\OC)C(=O)OC)cc2oc1=O", "measValue": 100}

====

Each record here notes measured Inhibition rate on human cancer cells.
# System: colon cancer RkO
# measurementDescription: In vitro cell inhibition assay, colon cancer RkO
# Type: cell-based, human
# conditionSet: 2.5 μM

{"molecule": "COC=C(C(=O)OC)c1ccccc1COc1ccc2c3c(c(=O)oc2c1C)CCCC3", "Inhibition rate on human cancer cells (%)": 100}
{"molecule": "CCCCc1c(C)c2ccc(OCc3ccccc3/C(=C\\OC)C(=O)OC)cc2oc1=O", "Inhibition rate on human cancer cells (%)": 100}
{"molecule": "COC=C(C(=O)OC)c1ccccc1COc1ccc2c3c(c(=O)oc2c1)CCCC3", "Inhibition rate on human cancer cells (%)": 100}
{"molecule": "N.N.[Cl][Pt][Cl] [Cisplatin, reference compound]", "Inhibition rate on human cancer cells (%)": 50}

====

Each record here notes measured Inhibition rate on human cancer cells.
# Test system: lung cancer cell line H460
# measurementDescription: In vitro cell inhibition assay (crystal violet), lung cancer H460
# Assay type: cell-based, human
# conditionSet: H460, 0.5 μM
attributeMeasured: Inhibition rate on human cancer cells

{"compound": "COC=C(C(=O)OC)c1ccccc1COc1ccc2c(-c3ccccc3)cc(=O)oc2c1 [28-52]", "attributeMeasured": "Inhibition rate on human cancer cells", "measValue": "90%"}
{"compound": "COC=C(C(=O)OC)c1ccccc1COc1ccc2c3c(c(=O)oc2c1C)CCCC3 [Compound 28-129]", "attributeMeasured": "Inhibition rate on human cancer cells", "measValue": "70%"}
{"compound": "CCc1c(C)c2ccc(OCc3ccccc3C(=COC)C(=O)OC)cc2oc1=O [Compound 28-18]", "attributeMeasured": "Inhibition rate on human cancer cells", "measValue": "90%"}
{"compound": "COC=C(C(=O)OC)c1ccccc1COc1ccc2c3c(c(=O)oc2c1)CCCC3 [Compound 28-128]", "attributeMeasured": "Inhibition rate on human cancer cells", "measValue": "100%"}
{"compound": "CCCCc1c(C)c2ccc(OCc3ccccc3/C(=C\\OC)C(=O)OC)cc2oc1=O [Compound 28-72, coumoxystrobin]", "attributeMeasured": "Inhibition rate on human cancer cells", "measValue": "100%"}
{"compound": "N.N.[Cl][Pt][Cl] [Cisplatin, reference compound]", "attributeMeasured": "Inhibition rate on human cancer cells", "measValue": "0%"}

====

# Tested on: colon cancer HCT8
# measurementDescription: In vitro cell inhibition assay, colon cancer HCT8
# Assay type: cell-based, human
# conditionSet: HCT 8, 5.0 μM
Each record here notes measured Inhibition rate on human cancer cells.
attributeMeasured: Inhibition rate on human cancer cells (%)

{"compound": "COC=C(C(=O)OC)c1ccccc1COc1ccc2c3c(c(=O)oc2c1C)CCCC3 [Compound 28-129]", "attributeMeasured": "Inhibition rate on human cancer cells", "measValue": 100}
{"compound": "N.N.[Cl][Pt][Cl] [Cisplatin, reference compound]", "attributeMeasured": "Inhibition rate on human cancer cells", "measValue": 90}
{"compound": "COC=C(C(=O)OC)c1ccccc1COc1ccc2c3c(c(=O)oc2c1)CCCC3 [Compound 28-128]", "attributeMeasured": "Inhibition rate on human cancer cells", "measValue": 100}
{"compound": "CCCCc1c(C)c2ccc(OCc3ccccc3/C(=C\\OC)C(=O)OC)cc2oc1=O [Compound 28-72, coumoxystrobin]", "attributeMeasured": "Inhibition rate on human cancer cells", "measValue": 100}

====

# Test system: lung cancer cell line H460
# measurementDescription: In vitro cell inhibition assay (crystal violet), lung cancer H460
# Format: cell-based, human
# conditionSet: H460, 1.0 μM
Each record here notes measured Inhibition rate on human cancer cells.

{"smi": "COC=C(C(=O)OC)c1ccccc1COc1ccc2c(C)c(Cl)c(=O)oc2c1", "Inhibition rate on human cancer cells": "75%"}
{"smi": "COC=C(C(=O)OC)c1ccccc1COc1ccc2c(-c3ccc(Cl)cc3)cc(=O)oc2c1", "Inhibition rate on human cancer cells": "70%"}
{"smi": "CCCCc1c(C)c2ccc(OCc3ccccc3/C(=C\\OC)C(=O)OC)cc2oc1=O", "Inhibition rate on human cancer cells": "100%"}
{"smi": "COC=C(C(=O)OC)c1ccccc1COc1ccc2c(C)c(F)c(=O)oc2c1", "Inhibition rate on human cancer cells": "70%"}

The measurements presented in this section are drawn from patent US9895346B2.
